biological target: GST-tagged K-Ras mutant / His-tagged hSOS1 (Homo sapiens, UniProt P01116); test: HTRF assay, K-Ras mutant / SOS1 interaction; type: binding; conditions: compound nos. 401-703; read-out: IC50 against mutant Kras
Sequence (P01116 whole entry G12D, form open): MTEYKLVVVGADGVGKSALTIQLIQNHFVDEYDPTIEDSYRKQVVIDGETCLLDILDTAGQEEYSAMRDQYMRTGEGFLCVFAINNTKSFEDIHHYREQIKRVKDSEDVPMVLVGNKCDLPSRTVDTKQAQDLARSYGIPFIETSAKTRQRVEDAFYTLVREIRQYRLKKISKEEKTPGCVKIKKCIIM
Property Name: IC50

For orientation, consider the following solved cases.
> print(dat)
                                   compound  endpoint.result
1  Oc1cc(-c2cnc3c(N4CC5CCC(C4)N5)nc(OC[C@@]45CCCN4C[C@H](F)C5)nc3c2)c2ccccc2c1 (single isomer, unassigned) [Compound 610]         > 500 nM
2  Fc1c(-c2cccc3scc(Cl)c23)c(Cl)cc2c(N3CC4CCC(C3)N4)nc(OC[C@@]34CCCN3C[C@H](F)C4)nc12         > 500 nM
3  Fc1c(N2CCCc3ccccc32)ccc2c(N3CCCCCC3)nc(OCC34CCCN3CCC4)nc12         > 500 nM
4  CN1CCC[C@H]1COc1nc(N2CCCC(C(N)=O)CC2)c2cc(Cl)c(-c3cccc4sc(N)nc34)c(F)c2n1 (stereo partly drawn) [Compound 427]         < 500 nM
5  Nc1nc2c(-c3c(Cl)cc4c(N5C6CCNCC5CC6)nc(OC[C@@]56CCCN5C[C@H](F)C6)nc4c3F)ccc(F)c2s1 (stereo partly drawn)         < 500 nM

Now examine the next entry.
Exercise: Input CNCCN1[C@@H]2CC[C@H]1CN(c1nc(OCC34CCCN3CCC4)nc3c(F)c(-c4ccc(F)c5sc(N)nc45)c(Cl)cc13)C2 , output reported IC50.
Key: < 500 nM
